Molecular target: BTK (Homo sapiens, UniProt Q06187)
Sequence (Q06187 whole entry): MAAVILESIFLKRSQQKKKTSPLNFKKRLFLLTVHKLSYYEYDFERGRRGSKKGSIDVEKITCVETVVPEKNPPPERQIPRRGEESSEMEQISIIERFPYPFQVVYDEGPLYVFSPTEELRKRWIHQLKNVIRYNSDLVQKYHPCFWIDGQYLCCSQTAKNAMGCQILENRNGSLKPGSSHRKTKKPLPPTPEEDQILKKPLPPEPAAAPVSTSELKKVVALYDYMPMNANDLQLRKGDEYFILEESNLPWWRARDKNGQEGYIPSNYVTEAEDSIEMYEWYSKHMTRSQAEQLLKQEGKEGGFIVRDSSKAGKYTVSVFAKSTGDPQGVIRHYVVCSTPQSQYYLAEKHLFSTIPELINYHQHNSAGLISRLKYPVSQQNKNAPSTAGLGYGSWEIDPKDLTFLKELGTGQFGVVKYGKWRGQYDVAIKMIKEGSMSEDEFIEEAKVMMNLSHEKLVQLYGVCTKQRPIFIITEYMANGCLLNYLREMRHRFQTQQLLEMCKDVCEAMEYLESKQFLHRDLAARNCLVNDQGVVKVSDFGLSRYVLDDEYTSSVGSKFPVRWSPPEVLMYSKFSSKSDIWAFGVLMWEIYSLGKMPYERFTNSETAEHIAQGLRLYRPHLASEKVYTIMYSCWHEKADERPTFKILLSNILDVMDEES
Test: Degradation of BTK protein in Namalwa cells (Western blot; DC50, Dmax)
Conditions: read-out: Dmax (BTK degradation)
measuredProperty: Dmax

- compound: "Nc1ncnc2c1c(-c1ccc(Oc3ccccc3)cc1)nn2C1CCN(CC2CCN(CC3CCN(c4ccc5c(c4)oc(=O)n5C4CCC(=O)NC4=O)CC3)CC2)CC1 (stereo not drawn) [Compound 544]"
  measuredProperty: "Dmax"
  testValue: "> 90%"
- compound: "NC1=NC=NC2C1C(c1ccc(Oc3ccccc3)cc1)=NN2C1CCCN(C2CN(C(=O)N3CC(C4CN(c5ccc6c(c5)C(=O)N(C5CCC(=O)NC5=O)C6=O)C4)C3)C2)C1 (stereo not drawn) [Compound 501]"
  measuredProperty: "Dmax"
  testValue: "> 90%"
- compound: "Nc1ncnc2c1c(-c1ccc(Oc3ccccc3)cc1)nn2C1CCN([C@H]2CCN(CC3CN(c4ccc5c(c4)C(=O)N(C4CCC(=O)NC4=O)C5=O)C3)C2)CC1 (stereo partly drawn) [Compound 425b]"
  measuredProperty: "Dmax"
  testValue: "> 90%"

---

Molecular target: BTK (Homo sapiens)
Assay: Degradation of BTK protein in Namalwa cells (Western blot; DC50, Dmax)
Conditions: BTK degradation; cell line not given
This listing pairs compounds with measured DC50.

- compound: "Nc1ncnc2c1c(-c1ccc(Oc3ccccc3)cc1)nn2C1CCN(C2CCN(CC3CCN(c4ccc5c(c4)CN(C4CCC(=O)NC4=O)C5=O)CC3)CC2)CC1 (centres unmarked)"
  DC50: "> 50 nM"
- compound: "Nc1ncnc2c1c(-c1ccc(Oc3ccccc3)cc1)nn2C1CCN(C2CCN(CC3CCN(c4ccc5c(c4)C(=O)N(C4CCC(=O)NC4=O)C5=O)CC3)CC2)CC1 (centres unmarked) [Compound 213]"
  DC50: "< 10 nM"
- compound: "Nc1ncnc2c1c(-c1ccc(Oc3ccccc3)cc1)nn2C1CCN(CC2CCN(CCC3CCN(c4ccc5c(c4)CN(C4CCC(=O)NC4=O)C5=O)CC3)CC2)CC1 (centres unmarked)"
  DC50: "10 to 50 nM"
- compound: "Nc1ncnc2c1c(-c1ccc(Oc3ccccc3)cc1)nn2C1CCN(C2CCN(C(=O)N3CCC(CN4CCC(c5ccc6c(c5)CN(C5CCC(=O)NC5=O)C6=O)CC4)CC3)CC2)CC1 (centres unmarked)"
  DC50: "< 10 nM"
- compound: "NC(=O)c1c(-c2ccc(Oc3ccccc3)cc2)nn2c1NCCC2C1CCN(C2CCN(CCN3CCN(c4ccc5c(c4)CN(C4CCC(=O)NC4=O)C5=O)CC3)CC2)CC1 (centres unmarked)"
  DC50: "10 to 50 nM"

---

Target: BTK (Homo sapiens)
Assay: BTK degradation, DC50 and Dmax of Table 1 (cell line not given)
Type: cell-based
Parameters: endogenous in cells
Details: concentration giving 50% reduction of BTK expression level
This listing pairs compounds with measured DC50.

- compound: "Nc1ncnc2c1c(-c1ccc(Oc3ccccc3)cc1)nn2[C@@H]1CCCN(C2CCN(C(=O)N3CCC(CN4CCC(c5ccc6c(c5)CN(C5CCC(=O)NC5=O)C6=O)CC4)CC3)CC2)C1 (stereo partly shown)"
  DC50: "10 to 50 nM"
- compound: "Nc1ncnc2c1c(-c1ccc(Oc3ccccc3)cc1)nn2[C@@H]1CCCN(C(=O)N2CCN(CCC3CCN(c4ccc5c(c4)C(=O)N(C4CCC(=O)NC4=O)C5=O)CC3)CC2)C1 (stereo partly shown)"
  DC50: "< 10 nM"
- compound: "Nc1ncnc2c1c(-c1ccc(Oc3ccccc3)cc1)nn2[C@@H]1CCCN(C2CCN(C(=O)N3CCN(CCCN4CCC(c5ccc6c(c5)C(=O)N(C5CCC(=O)NC5=O)C6=O)CC4)CC3)CC2)C1 (stereo partly shown)"
  DC50: "10 to 50 nM"
- compound: "Nc1ncnc2c1c(-c1ccc(Oc3ccccc3)cc1)nn2[C@@H]1CCCN(C2CCN(C(=O)N3CCC(C4CCN(c5ccc6c(c5)C(=O)N(C5CCC(=O)NC5=O)C6=O)CC4)CC3)CC2)C1 (stereo partly shown)"
  DC50: "> 50 nM"
- compound: "Nc1ncnc2c1c(-c1ccc(Oc3ccccc3)cc1)nn2C1CCN(CC2CCN(C(=O)N3CCN(c4ccc5c(c4)C(=O)N(C4CCC(=O)NC4=O)C5=O)CC3)CC2)CC1 (stereo not shown)"
  DC50: "< 10 nM"
- compound: "Nc1ncnc2c1c(-c1ccc(Oc3ccccc3)cc1)nn2C1CCN(C(=O)N2CCN(CCN3CCN(c4ccc5c(c4)CN(C4CCC(=O)NC4=O)C5=O)CC3)CC2)CC1 (stereo not shown)"
  DC50: "10 to 50 nM"
- compound: "Nc1ncnc2c1c(-c1ccc(Oc3ccccc3)cc1)nn2C1CCCN(CCOCCOCCN2CCC(c3ccc4c(c3)CN(C3CCC(=O)NC3=O)C4=O)CC2)C1 (stereo not shown)"
  DC50: "10 to 50 nM"
- compound: "Nc1ncnc2c1c(-c1ccc(Oc3ccccc3)cc1)nn2C1CCN(CC2CCN(C(=O)N3CCN(c4ccc5c(c4)CN(C4CCC(=O)NC4=O)C5=O)CC3)CC2)CC1 (stereo not shown)"
  DC50: "< 10 nM"
- compound: "Nc1ncnc2c1c(-c1ccc(Oc3ccccc3)cc1)nn2[C@@H]1CCCN(CC2CCN(C(=O)N3CCC(C4CCN(c5ccc6c(c5)CN(C5CCC(=O)NC5=O)C6=O)CC4)CC3)CC2)C1 (stereo partly shown)"
  DC50: "10 to 50 nM"
- compound: "Nc1ncnc2c1c(-c1ccc(Oc3ccccc3)cc1)nn2[C@@H]1CCCN(C2CCN(CCC3CCN(c4ccc5c(c4)CN(C4CCC(=O)NC4=O)C5=O)CC3)CC2)C1 (stereo partly shown)"
  DC50: "> 50 nM"
